# test-target: T1, human MSLN-FL-his protein (human, UniProt Q13421 296-580)
# T1 construct: Made in HEK293E cells, purified on nickel column; also called hMSLN-FL-his; human MSLN full-length protein; not shown: His tag
# T1 sequence (Q13421 other isoform, or with tags, fused parts or gaps): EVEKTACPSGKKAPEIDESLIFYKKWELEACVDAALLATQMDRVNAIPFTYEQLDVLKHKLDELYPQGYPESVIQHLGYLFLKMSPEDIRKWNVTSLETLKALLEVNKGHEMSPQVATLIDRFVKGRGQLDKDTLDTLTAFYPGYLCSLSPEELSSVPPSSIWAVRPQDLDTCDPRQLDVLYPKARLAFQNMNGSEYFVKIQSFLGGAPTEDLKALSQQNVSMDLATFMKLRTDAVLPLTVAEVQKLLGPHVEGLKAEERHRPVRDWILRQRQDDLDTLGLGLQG
# test-protocol: ELISA, coated antigen, antibody 20 nM
endpoint-label: OD450
Give the value as a plain number.

S009-F7.67.12 chimeric antibody (antibody, human IgG1, kappa, V domains shown, Human-murine chimeric antibody, human IgG1/kappa constant regions) VH: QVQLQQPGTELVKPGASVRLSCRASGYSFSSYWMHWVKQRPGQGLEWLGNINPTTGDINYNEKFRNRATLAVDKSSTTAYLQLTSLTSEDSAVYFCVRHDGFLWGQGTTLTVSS VL: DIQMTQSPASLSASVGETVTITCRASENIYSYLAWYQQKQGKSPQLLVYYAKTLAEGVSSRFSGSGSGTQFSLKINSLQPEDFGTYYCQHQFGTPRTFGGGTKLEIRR; 2.23

Suppose we examine the binder S009-F7.25.19 chimeric antibody (antibody, human IgG1, kappa, V domains shown, Human-murine chimeric antibody, human IgG1/kappa constant regions) VH: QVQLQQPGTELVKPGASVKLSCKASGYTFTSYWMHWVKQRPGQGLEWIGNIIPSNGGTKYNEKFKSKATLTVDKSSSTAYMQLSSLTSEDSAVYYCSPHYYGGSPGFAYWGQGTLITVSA VL: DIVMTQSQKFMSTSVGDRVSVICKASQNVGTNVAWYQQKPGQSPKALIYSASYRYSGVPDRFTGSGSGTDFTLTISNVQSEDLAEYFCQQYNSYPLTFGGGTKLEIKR ; what OD450 value has been reported?
2.48

Suppose we examine the binder S009-F7.65.13 chimeric antibody (antibody, human IgG1, kappa, V domains shown, Human-murine chimeric antibody, human IgG1/kappa constant regions) VH: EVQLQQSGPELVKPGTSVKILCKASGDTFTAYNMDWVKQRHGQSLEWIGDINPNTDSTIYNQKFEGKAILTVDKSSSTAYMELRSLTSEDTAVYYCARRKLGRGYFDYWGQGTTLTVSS VL: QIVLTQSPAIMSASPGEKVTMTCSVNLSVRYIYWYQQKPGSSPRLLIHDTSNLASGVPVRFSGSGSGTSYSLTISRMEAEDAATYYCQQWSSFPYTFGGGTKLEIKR ; what OD450 value has been reported?
2.12

Suppose we examine the binder S009-F7.23.19 chimeric antibody (antibody, human IgG1, kappa, V domains shown, Human-murine chimeric antibody, human IgG1/kappa constant regions) VH: EVKLVESGGGLVQPGGSLSLSCAASGFTFTDYYMSWVRQPPGKALEWLGFIRSKANAYTTEYSASVKGRFTISRDNSQSILYLQMNDLRAEDSATYYCARYYYYGSGYVWYFDVWGTGTTVTVSS VL: DIVMTQSQKFMSTSVGDRVSVTCKASQSVGTNVAWYQQKPGQFPKALIYSASYRYSGVPDRFTGSGSGTDFTLTIINVQSEDLAEYFCQQYNSYPLTFGAGTKLELKR ; what OD450 value has been reported?
2.46

All figures here come from patent US20250250357A1.
